- Target or system: Human (6-His)Sortilin (Homo sapiens, UniProt Q99523)
- Construct: purchased RnD Systems
- Sequence (Q99523 78-755 limits assumed): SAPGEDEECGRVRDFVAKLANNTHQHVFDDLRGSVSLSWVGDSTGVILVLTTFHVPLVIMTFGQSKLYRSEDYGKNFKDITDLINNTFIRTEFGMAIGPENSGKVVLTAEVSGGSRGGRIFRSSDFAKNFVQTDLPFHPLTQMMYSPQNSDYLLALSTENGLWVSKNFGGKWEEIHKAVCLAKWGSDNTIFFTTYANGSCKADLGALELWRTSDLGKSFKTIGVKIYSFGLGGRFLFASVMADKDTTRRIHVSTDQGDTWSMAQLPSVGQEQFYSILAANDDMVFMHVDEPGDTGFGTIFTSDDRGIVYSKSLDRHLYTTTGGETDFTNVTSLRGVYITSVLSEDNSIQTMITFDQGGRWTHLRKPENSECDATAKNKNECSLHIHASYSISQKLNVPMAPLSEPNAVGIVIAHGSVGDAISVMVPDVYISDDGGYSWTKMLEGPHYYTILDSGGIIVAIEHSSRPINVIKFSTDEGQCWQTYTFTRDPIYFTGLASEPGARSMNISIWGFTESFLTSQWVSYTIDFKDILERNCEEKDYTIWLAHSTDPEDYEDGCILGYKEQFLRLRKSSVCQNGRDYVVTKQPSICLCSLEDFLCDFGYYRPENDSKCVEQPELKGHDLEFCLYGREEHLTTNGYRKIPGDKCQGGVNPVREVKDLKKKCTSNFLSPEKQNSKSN
- Method description: Human Sortilin GCI (Grating-Coupled Interferometry) binding assay
- Applied conditions: Creoptix WAVE-RAPID, single concentration (usually 1 µM, 10 µM or 100 µM), immobilised Human (6-His)Sortilin, 1:1 kinetic binding model
Answer each item with its documented Kd.
Reply with the number, then its unit.

# example entries with known answers
1) CC(C)CC(Nc1ccc2ccccc2n1)c1nn[nH]n1 (racemic); 22 µM
2) CC(C)(C)CCC(Nc1ccc2ccccc2n1)c1nn[nH]n1 (racemic); 1.83 µM
3) CC(C)CCC(Nc1cnc2ccccc2c1)c1nn[nH]n1 (racemic); 10.5 µM
4) CC(C)(C)CC[C@H](Nc1ncccn1)C(=O)O; 13.2 µM
5) CC(C)(C)CC(Nc1cncc2ccccc12)c1nn[nH]n1 (racemic); 2.47 µM
6) CC(C)(C)CC[C@@H](Nc1ccc2ccccc2n1)c1nn[nH]n1 (single isomer, unassigned); 6.07 µM

I would be grateful if you could provide Kd for each of the following entries.
1. CC(C)CC(Nc1ccccn1)c1nn[nH]n1 (racemic)
2. CC(C)(C)CC[C@H](Nc1ccc2ccccc2n1)c1nn[nH]n1 (single isomer, unassigned)
3. CC(C)(C)CC[C@H](Nc1cccnc1)c1nn[nH]n1 (single isomer, unassigned)
4. COc1ccc2ncnc(NC(CCC(C)(C)C)c3nn[nH]n3)c2c1 (racemic)
5. CC(C)(C)CCC(Nc1cnc2ccccc2c1)c1nn[nH]n1 (racemic)

179 µM
0.912 µM
1.56 µM
1.49 µM
3.43 µM

Where these numbers come from: patent EP4428121A1
